Every entry's value here was drawn from ChEMBL document CHEMBL1201862.

Test system: HL-60
method.summary: NCI tumour cell line growth inhibition, 48 h
Calls of active or inactive are those of the source. No stated cut-off is given here; in the data, active = GI50 up to about 1.1 µM and inactive = higher.
Labels: active, inactive

compound="c1ccc2c(c1)CCCC/C2=N/OCC1CO1 (stereo not given)" class=inactive
compound=Cn1ccnc1Sc1ccc(/C=N/NC(=O)c2ccccc2[N+](=O)[O-])cc1[N+](=O)[O-] class=inactive
compound="C#CCOC(=O)C(N)CC(N)=O (stereo not given)" class=inactive
compound=CCOC(=O)C1=C(C(=O)OCC)SC2(S1)C(C(=O)OCC)=C(C(=O)OCC)Sc1c2ssc1=O class=active
compound=COc1cccc(Nc2nc(N)nc(N)c2N=O)c1 class=inactive
compound=Nc1cc(CO)cc(Nc2c3ccccc3nc3occc23)c1 class=inactive
compound=COc1cc2c([C@@H](OC(=O)c3ccccc3)c3ccc4c(c3)OCO4)nccc2c(OC)c1OC class=inactive
compound=O=C(NCCCl)Nc1ccccc1 class=inactive
compound="CC(C)(C)OC(=O)NC(CCCCNC(=O)OCc1ccccc1)C(=O)NC(CCCCNC(=O)OCc1ccccc1)C(=O)ON1C(=O)CCC1=O (stereo not given)" class=inactive
compound="CC1(Cl)CCC2(CC(Br)=CC3OC32C)CC1Br (stereo not given)" class=inactive
compound="COc1ccc(COCC[C@H](C)OC2OC(CO[Si](C)(C)C(C)(C)C)C(OC(=O)CCCN=[N+]=[N-])C(OC(=O)CCCN=[N+]=[N-])C2OC(=O)CCCN=[N+]=[N-])cc1 (stereo not given in full)" class=inactive
compound=Cc1csc(/N=C(/NCCN2CCOCC2)Nc2nc(C)cs2)n1 class=inactive
compound=Cc1cc2c(C)nn(Cc3ccccc3Cl)c2c(C#N)c1C class=inactive
compound="C/C=C/C1=CC(=O)C(O)C1O (stereo not given)" class=inactive
compound=CCn1ncc2c(=O)n3ncn(-c4ccc(Br)cc4)c3nc21 class=inactive

* * *

Test system: SF-268
method.summary: NCI tumour cell line growth inhibition, 48 h
Active and inactive are the calls of the source. No stated cut-off is given here; in the data, active = GI50 up to about 1.1 µM and inactive = higher.
Labels: active, inactive

molecule="CC1=CC(=O)C2=C(C)CCC3C(C)C(=O)OC3C12 (stereo not drawn)" class=inactive
molecule=CN1NC2(CCCCC2)ON=C1c1ccccc1 class=inactive
molecule="c1ccc(CN2CCCCC(Sc3ccccc3)CC2)cc1 (stereo not drawn)" class=inactive
molecule="COc1ccc(COCC[C@H](C)OC2OC(CO[Si](C)(C)C(C)(C)C)C(OC(=O)CCCN=[N+]=[N-])C(OC(=O)CCCN=[N+]=[N-])C2OC(=O)CCCN=[N+]=[N-])cc1 (stereo partly drawn)" class=inactive
molecule=C/C(Nc1ccc(Cl)cc1Cl)=C1/CCOC1=O class=inactive
molecule=COc1ccc(/C(C)=N/NC(=O)c2ccncc2)c(OC)c1 class=inactive
molecule="Cc1ccccc1N(CCC#N)C1=NN(C(=O)CC(=O)Nc2ccccc2)C(c2ccccc2)C1 (stereo not drawn)" class=inactive
molecule=CCN(CCCl)c1cc(CN(C)C)cc(NC(=O)c2ccc(C(=O)Nc3cccc(N(CCCl)NN)c3)cc2)c1 class=active

* * *

Tested on: SW-620
method.summary: NCI tumour cell line growth inhibition, 48 h
Calls of active or inactive are those of the source. Cut-off read from the data, not from the text of the source: active = GI50 up to about 1.1 µM and inactive = higher.
readout.kind: GI50

molecule="C/C=C1/CN2CCC34c5ccccc5N(C)C23C2CC1C4(C(=O)OC)C(OC(C)=O)O2 (stereo not drawn)" system=SW-620 readout_kind=GI50 result="> 100 µM (inactive)"
molecule=CCOc1ccc(/C=C2/C(=O)N=C(N)N=C2N)cc1OCC system=SW-620 readout_kind=GI50 result="> 100 µM (inactive)"
molecule=Cc1ccc(Nc2[nH]c(=O)[nH]c(=O)c2C)cc1Cl system=SW-620 readout_kind=GI50 result="> 100 µM (inactive)"

* * *

Tested on: RPMI-8226
method.summary: NCI tumour cell line growth inhibition, 48 h
Activity calls are given as the source filed them. Cut-off read from the data, not from the text of the source: active = GI50 up to about 1.1 µM and inactive = higher.
Labels: TRUE (active), FALSE (inactive)

compound=CCOc1ccc(/C=C2/C(=O)N=C(N)N=C2N)cc1OCC class=FALSE
compound=CCn1ncc2c(=O)n3ncn(-c4ccc(Br)cc4)c3nc21 class=FALSE
compound=O/N=C(/CC(O)(C(F)(F)F)C(F)(F)F)c1ccccc1 class=FALSE
compound=CCNC(=S)N/N=C(/C)c1cccc(/C(C)=N\NC(=S)NCC)n1 class=TRUE
compound="Fc1cc2nc3n(c2cc1F)C(c1c(Cl)cccc1Cl)SC3 (centres undefined)" class=FALSE
compound=CNC(=O)OCC1=C(COC(=O)NC)CN(c2ccccc2)C1 class=FALSE
compound=Cc1nc2[nH]ccn2c(=O)c1CCCl class=FALSE
compound="CCOC(=O)C1=C(N2CCCC2)C(=O)C(C(=O)OCC)C1 (centres undefined)" class=FALSE
compound=O=C(c1ccco1)n1c2ccc(Br)cc2c2nc3ccccc3nc21 class=FALSE
compound="CCN(CC)c1ccc(C2NC(=O)c3ccccc3N2)cc1 (centres undefined)" class=FALSE
compound="COC1C(OC(=O)c2ccc(C)[nH]2)C(O)C(Oc2ccc3c(O)c(NC(=O)c4c[nH]c(C(=O)Nc5c(O)c6ccc(OC7OC(C)(C)C(OC)C(OC(=O)c8ccc(C)[nH]8)C7O)c(C)c6oc5=O)c4C)c(=O)oc3c2C)OC1(C)C (centres undefined)" class=FALSE
compound="C=CC(Br)(CBr)CCC1OC1(C)C (centres undefined)" class=FALSE
compound=CCOC(=O)c1sc2c(c1OC(=O)c1ccccc1)c(=O)n(-c1ccccc1)c(=S)n2-c1ccccc1 class=FALSE
compound="COC(=O)c1ccc(CN2CCc3c([nH]c4ccccc34)C2CO)o1 (centres undefined)" class=FALSE
compound=CCOC(=O)c1c(C)n(-c2ccc(C)cc2)c(=O)c2ccccc2c(=O)c2c(=O)ccc(=O)c1=2 class=FALSE
compound="CCOC(=O)c1cc(C2CCN(Cc3ccccc3)C2=S)c(C(=O)C=[N+]=[N-])[nH]1 (centres undefined)" class=FALSE
compound="Cc1ccc(S(=O)(=O)C(CC(NC=O)S(=O)(=O)c2ccc(C)cc2)NC=O)cc1 (centres undefined)" class=FALSE
compound=CN(C)c1ccc(-c2ccc(N(C)C)c3n[se]nc23)c2n[se]nc12 class=FALSE
compound=N=c1c2ccccc2nc2oc3ccc(Cl)cc3n12 class=FALSE
compound=O=C(O)/C(Cl)=C(Cl)/C=N/NC(=O)c1cc2ccccc2cc1O class=FALSE
compound=OCCCC(O)(c1ccccc1)c1ccccc1 class=FALSE
compound="Cc1cc2cc3c(C)cc(=O)oc3c(C)c2o1 [TRIOXSALEN]" class=FALSE
compound=Cc1ccc(S(=O)(=O)Nn2c(S)c(C#N)c(-c3ccc([N+](=O)[O-])cc3)c(C#N)c2=O)cc1 class=FALSE
compound="COC(=O)c1ccccc1C1=C([N+](=O)[O-])C(c2cccc(Br)c2)C(C#N)=C(N)O1 (centres undefined)" class=FALSE
compound=CCN(CCCl)c1cc(CN(C)C)cc(NC(=O)c2ccc(C(=O)Nc3cccc(N(CCCl)NN)c3)cc2)c1 class=TRUE
compound="c1ccc2c(c1)CCCC/C2=N/OCC1CO1 (centres undefined)" class=FALSE
compound=CC(C)[C@@H]1CC[C@@H](C)C[C@H]1OC(=O)c1c2n(c3ccccc13)C[C@H]1OC(C)(C)O[C@@H]21 class=FALSE
compound=CC(=O)Nc1ccc(NC(=O)CC(=O)Nc2ccc(NC(C)=O)cc2)cc1 class=FALSE
compound=COc1ccc(-c2c3c(nc4nc(SCCc5ccccc5)nc(N)c24)CCCC3)cc1OC class=FALSE

* * *

Tested on: UO-31
method.summary: NCI tumour cell line growth inhibition, 48 h
Active and inactive are the calls of the source. Rule as the data show it: active = GI50 up to about 1.1 µM and inactive = higher.
# GI50 values compiled below
readout.kind: GI50

compound="CC(=O)OC1CC2(C)OC(Cc3ccccc32)O1 (stereo unspecified)" result="> 100 µM (inactive)"
compound="CCOC(=O)C(NCc1ccc2c(c1)OCO2)(NC(=O)c1ccccc1)C(F)(F)F (stereo unspecified)" result="51.3 µM (inactive)"
compound=Cc1cc2c3c(nc4ccccc42)C(=O)c2ccccc2-c3n1 result="10.5 µM (inactive)"
compound=C[C@H](O)C(=O)SC[C@H](NC(=O)CC[C@@H](N)C(=O)O)C(=O)NCC(=O)O result="> 100 µM (inactive)"
compound=CCN(CC)C(=O)Cn1c(C)cc2ccccc21 result="> 100 µM (inactive)"
compound=O=C(O)/C(Cl)=C(Cl)/C=N/NC(=O)c1cc2ccccc2cc1O result="2.48 µM (inactive)"

* * *

System: K562
method.summary: NCI tumour cell line growth inhibition, 48 h
The source made the active and inactive calls. Rule as the data show it: active = GI50 up to about 1.1 µM and inactive = higher.
Labels: active, inactive

compound="N#CC(C(=O)/C(=N/N)C(C#N)c1ccccc1)c1ccccc1 (stereo not given)" class=inactive
compound=O=C1c2cccc3cc4ccccc4c(c23)C(=O)N1CCCNCCNCCCN1C(=O)c2cccc3cc4ccccc4c(c23)C1=O class=active
compound=CCOC(=O)C(C(=O)OCC)S(C)(=O)=O class=inactive
compound="N=C1OC(c2ccc3c(c2)OCO3)C(NNS(=O)(=O)c2ccccc2)=C1O (stereo not given)" class=inactive
compound=N#CCCn1[nH]c(=O)c(Cl)c(Cl)c1=O class=inactive
compound=CC(C)(C)Nc1noc(=O)n1C(C)(C)C class=inactive
compound=Nc1ncnc2c1ncn2[C@H]1CC[C@@H](NO)C1 class=inactive
compound="O=C1c2cc3c(cc2CC12Cc1ccc4c(c1C2=O)CCCC4)CCCC3 (stereo not given)" class=inactive
compound=O=C1c2ccccc2C(=O)N1/N=C1/SC(=N\c2ccccc2)/C(=N/c2ccccc2)N1c1ccccc1 class=inactive
compound="COC(=O)c1ccc(CN2CCc3c([nH]c4ccccc34)C2CO)o1 (stereo not given)" class=inactive
